The values you see were collected from PubChem BioAssay AID330.

Tested on: P388 leukemia ip, CD2F1 mice, survival T/C
Measurement protocol: NCI In Vivo Anticancer Drug Screen. Data for tumor model P388 Leukemia (intraperitoneal) in CD2F1 (CDF1) mice
Study conditions: endpoint: median survival time; dose: 25.0 mg/kg/injection; schedule: Q01DX005 (ip); vehicle: saline with Tween-80
Toxic doses and inconclusive results are not listed. Rule for the calls: active = survival T/C of 150% or more; inactive = T/C below 125% in these data.
Answer with one of the outcomes active, inactive

Tell me the recorded outcome of this test for OCCN1CCCN(CCCN2c3ccccc3Sc3ccc(C(F)(F)F)cc32)CC1 .
inactive

Just curious, what result did COc1cc2c[n+](C)c3c(c2cc1OC)Cc1cc2c(cc1-3)OCO2 get here?
active

Hi, do you know how S=C(NCc1ccccc1)NNc1nnc(-c2ccccc2)c(-c2ccccc2)n1 came out in this test?
inactive

Test call for this compound, please: CC(=O)OC[C@@]1(C)[C@@H]2CC[C@]3(C)[C@H](C(=O)C=C4[C@@H]5CC(C)(C)CC[C@]5(C(=O)O)CC[C@]43C)[C@@]2(C)CC[C@@H]1OC(C)=O
inactive

Hey, what did the test say about Cc1cccc2c1Oc1ccccc1C2NC(=O)c1ccccc1 (centres undefined) ?
inactive

Kindly provide the recorded test outcome for the following compound: COC(=O)c1ccc(O)cc1
inactive

Just curious, what result did C[C@]12CC[C@H](O)C[C@@H]1CC[C@@H]1[C@@H]2CC[C@]2(C)c3nc4ccccc4c(C(=O)O)c3C[C@@H]12 get here?
inactive

Could you please tell me the result logged for CC(C)NC(=O)OCc1c(COC(=O)NC(C)C)c2n(c1-c1ccc(Cl)c(Cl)c1)CCS2=O (centres undefined) in this assay?
inactive

Record lookup: outcome of this test for CCC1SCC(=O)N1c1nncs1 (centres undefined) ?
inactive

What did this assay record as the result for CN(C)c1ccc(/C=N/Nc2nnc3c4ccccc4n(C)c3n2)cc1 ?
inactive

Which outcome did this test record for the compound CCN(CC)CCNc1ccc(C)c2sc3ccccc3c(=O)c12 ?
inactive

Record lookup: outcome of this test for CC(O)(CSc1ccccc1)CSc1ccccc1 (tested in a mixture with another compound) ?
inactive

Any idea what this test logged for Nc1nc2cc3[nH]ncc3cc2c(=O)[nH]1 ?
inactive

Give the logged outcome of this assay for the following compound: O=C(c1ccccc1)c1cccc(C(=O)c2ccccc2)c1
inactive

GET /call?item= COC1=CC2(C=CC1=O)CCC(=O)O2 (centres undefined) returns the recorded outcome of this test.
inactive

For O=C(O)c1cc2ccccc2c(N=Nc2cc(C(F)(F)F)ccc2Cl)c1O , what call appears in the results of this test?
inactive

Which result was noted for this compound in the test: NC1CC2c3ccccc3C1c1ccccc12 (centres undefined)
inactive

Per the records of this test, what outcome belongs to COc1cc(NCCCCCNC(C)C)c2ncccc2c1 ?
inactive

Test call for this compound, please: Cc1cc2c(C(C)C)c(O)c(O)c(C=NC3CCCCC3)c2c(O)c1-c1c(C)cc2c(C(C)C)c(O)c(O)c(C=NC3CCCCC3)c2c1O
inactive

* * *

Tested on: P388 leukemia ip, CD2F1 mice, survival T/C
Measurement protocol: NCI In Vivo Anticancer Drug Screen. Data for tumor model P388 Leukemia (intraperitoneal) in CD2F1 (CDF1) mice
Study conditions: endpoint: median survival time; dose: 50.0 mg/kg/injection; schedule: Q01DX005 (ip); vehicle: Klucel (hydroxypropylcellulose) (HPC); higher = longer survival
Inconclusive results and toxic doses are left out.
Assay endpoint: T/C

# return recorded T/C for input O=C1CC(N2CCCC2)=Nc2ccccc2N1
113 % of control

Answer with the recorded T/C for the compound listed here: COc1ccc(CC2c3cc(OC)c(OC)cc3C=CN2C)cc1OC (configuration not stated)
96 % of control

Indicate the recorded T/C value for this compound: OCC#C[C@@H]1CC[C@H]1C#CCO
100 % of control

Return reported T/C. Input compound: Cc1ccc(/C=C(\NC(=O)c2ccc(C)cc2)C(=O)O)cc1
114 % of control

Please give the documented T/C of CCCCCCCCCCCN(CCCCCCCCCCC)CC(O)c1cc2c(c3ccccc13)CCCC2 (configuration not stated)
98 % of control

Supply measured T/C of CCC1(c2ccc(N)cc2)CCC(=O)NC1=O (configuration not stated) in your reply.
91 % of control

Please supply the value of reported T/C for the item CN(C)N1C(=O)c2ccccc2NC1c1ccccc1 (configuration not stated)
87 % of control

State, in one line, measured T/C of O=C1Nc2cnc(Cl)nc2Nc2cc(Cl)ccc21
95 % of control

# return recorded T/C for input CC1(C)CC(NC2CCCCC2)=CC(=NC2CCCCC2)N1
100 % of control

Give the measured T/C for O=C1CCOc2cccc(c2)OCCC(=O)OCCCOC(=O)CCOc2cccc(c2)OCCC(=O)OCCCO1
96 % of control

State its T/C for this compound: O=c1c2sc3ccccc3c2ncn1/N=C/c1ccc(Cl)cc1
105 % of control

Please give measured T/C of the following entry: Cn1c2c(c(=O)c3cc(O)ccc31)CC(C(C)(C)O)O2 (configuration not stated)
104 % of control
